- Experimental system: wild-type human melanocortin 4 receptor (WT-hMC4R) (Homo sapiens)
- Construct: cDNA from UMR cDNA resource center
- Sequence (P32245 whole entry): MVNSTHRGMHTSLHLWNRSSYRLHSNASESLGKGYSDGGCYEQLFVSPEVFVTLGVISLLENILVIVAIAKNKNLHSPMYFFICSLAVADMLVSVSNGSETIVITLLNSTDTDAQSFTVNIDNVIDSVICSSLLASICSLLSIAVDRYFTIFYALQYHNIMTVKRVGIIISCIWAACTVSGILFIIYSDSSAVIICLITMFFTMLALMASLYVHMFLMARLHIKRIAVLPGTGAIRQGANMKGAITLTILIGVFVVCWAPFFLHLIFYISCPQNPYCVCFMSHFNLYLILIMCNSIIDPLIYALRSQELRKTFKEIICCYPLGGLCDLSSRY
- Measurement description: Cyclic AMP assay (HTRF), antagonist competition against NDP-α-MSH
- Cond: HEK293T cells expressing double-tagged WT-hMC4R; cAMP accumulation; 1 hour compound then 4 nM NDP-α-MSH 30 min
- Description: Intracellular cyclic 3′-5′ adenosine monophosphate (cAMP) accumulation was measured using a competitive immunoassay based on HTRF (Homogeneous Time-Resolved Fluorescence) technology (cAMP dynamic-2, Cis-Bio). HEK293T stable cell line expressing double-tagged WT-hMC4R construct were collected and washed in cAMP buffer (1XD-PBS pH 7.4, 0.1% glucose). […] Reading of HTRF signal was performed on Artemis TR-FRET plate reader (Cosmo Bio). […]
pIC50: −log10 of the molar value.
Property: pIC50; scope: individual compounds
Measured property: pIC50

> print(dat)
                            smiles.notation           val
1  CCCCCN(CCCCC)C(=O)c1ccn2nc(-c3ccc(C)cc3)c(CCCN3CCCCC3)c2c1  5.30 to 6.00
2  COC(=O)c1ccc(-c2nn3ccc(C(=O)N(CCC(C)C)CCC(C)C)cc3c2CCCN2CCCCC2)cc1  6.00 to 6.30
3  CC(C)CCN(CCC(C)C)C(=O)c1ccn2nc(-c3ccc(F)cc3)c(CCCN3CCCCC3)c2c1        > 6.30

All figures here come from patent US9018395B2.
